Test system: BMP response element (BRE) luciferase reporter in HuH7 cells, BMP6 stimulated
Experiment: BMP signaling reporter gene assay
Assay type: cell-based
Conditions: Homo sapiens, Huh-7; HuH7 BRE-luciferase, BMP6 100 ng/ml, 5 hours; read-out: MSD BMP RGA IC50
pIC50: −log10 of the molar value.
READOUT KIND: pIC50

1. COCCN1C[C@@H]2C[C@]2(c2ccc(-c3cnc(N)c(C(=O)N[C@H]4CC[C@H](O)CC4)c3)cc2)C1 :: 7.40
2. Nc1ncc(-c2ccc([C@]34C[C@H]3CN(C3COC3)C4)cc2)cc1C(=O)N[C@H]1CC[C@H](O)CC1 :: 6.96
3. Nc1ncc(-c2ccc([C@@]34C[C@@H]3CN(C3CCS(=O)(=O)CC3)C4)cc2)cc1C(=O)N[C@H]1CC[C@H](O)CC1 :: 6.44
4. CS(=O)(=O)N1CCC(N2C[C@H]3C[C@@]3(c3ccc(-c4cnc(N)c(C(=O)N[C@H]5CC[C@H](O)CC5)c4)cc3)C2)CC1 :: 7.12
5. Nc1ncc(-c2ccc([C@@]34C[C@@H]3CN(C(CF)CF)C4)cc2)cc1C(=O)N[C@H]1CC[C@H](O)CC1 :: 6.06
6. C#CCN1C[C@@H]2C[C@]2(c2ccc(-c3cnc(N)c(C(=O)N[C@H]4CC[C@H](O)CC4)c3)cc2)C1 :: 7.30
7. Nc1ncc(-c2ccc([C@]34C[C@H]3CN(CC(F)(F)F)C4)cc2)cc1C(=O)N[C@H]1CC[C@H](O)CC1 :: 5.93
8. Nc1ncc(-c2ccc(C(=O)N3CCOCC3)cc2)cc1C(=O)NC1CCCCC1 :: 5.96
9. C[C@H](c1ccc(-c2cnc(N)c(C(=O)NC34CC5CC(CC(O)(C5)C3)C4)c2)cc1)N1CC2(COC2)C1 :: 6.02
10. Nc1ncc(-c2ccc([C@]34C[C@H]3CN(C3CCOCC3)C4)cc2)cc1C(=O)NC12CCC(O)(CC1)CC2 :: 6.63
11. COCCN1C[C@@H]2C[C@]2(c2ccc(-c3cnc(N)c(C(=O)NC45CCC(O)(CC4)CC5)c3)cc2)C1 :: 7.29
12. C[C@@H]1CCCN1Cc1ccc(-c2cnc(N)c(C(=O)N[C@H]3CC[C@](C)(O)CC3)c2)c(F)c1F :: 6.26
13. C[C@@H]1CCCN1Cc1ccc(-c2cnc(N)c(C(=O)N[C@H]3CC[C@](C)(O)CC3)c2)c(F)c1 :: 6.55
14. C[C@@H]1CCCN1Cc1ccc(-c2cnc(N)c(C(=O)N[C@H]3CC[C@](C)(O)CC3)c2)cc1Cl :: 6.07

* * *

Molecular target: wild-type ALK2 (aa172-499) (Homo sapiens (Human))
Assay: Caliper biochemical peptide phosphorylation assay, ALK2
Settings: 15 μm ATP, 60 min at 30° C.; read-out: ALK2 EPK (IC50)
So basically, if IC50 comes in under 0.02 µM it's Criterion met, and if it's 0.02 µM or more it's Criterion not met.

1. Nc1ncc(-c2ccc([C@]34C[C@H]3CN(C3CCC(F)(F)CC3)C4)cc2)cc1C(=O)N[C@H]1CC[C@H](O)CC1 :: Criterion met
2. C[C@]1(O)CC[C@H](NC(=O)c2cc(-c3ccc([C@@]45C[C@@H]4CN(C4CCC(F)(F)CC4)C5)cc3)cnc2N)CC1 :: Criterion not met
3. C[C@@H](c1ccc(-c2cnc(N)c(C(=O)N[C@H]3CC[C@H](O)CC3)c2)cc1)N1CC2(COC2)C1 :: Criterion met
4. C[C@H](c1ccc(-c2cnc(N)c(C(=O)N[C@H]3CC[C@H](O)CC3)c2)cc1)N1CC2(COC2)C1 :: Criterion met
5. Nc1ncc(-c2ccc([C@]34C[C@H]3CN(C3CCOCC3)C4)cc2)cc1C(=O)NC12CC(CO)(C1)C2 :: Criterion met
6. CC(C)N1C[C@H]2C[C@@]2(c2ccc(-c3cnc(N)c(C(=O)NC45CC(CO)(C4)C5)c3)cc2)C1 :: Criterion not met
7. COCCN1C[C@@H]2C[C@]2(c2ccc(-c3cnc(N)c(C(=O)N[C@H]4CC[C@H](O)CC4)c3)cc2)C1 :: Criterion met

* * *

In this section, each of the compounds is paired with its reported IC50.
Tested on: BMP response element (BRE) luciferase reporter in HuH7 cells, BMP6 stimulated
Test: BMP signaling reporter gene assay
Assay type: cell-based
Details: Homo sapiens, Huh-7; HuH7 BRE-luciferase, BMP6 100 ng/ml, 5 hours; read-out: MSD BMP RGA IC50
READOUT KIND: IC50 (nM)

1) Nc1ncc(-c2ccc([C@]34C[C@H]3CN(C3CCC(F)(F)CC3)C4)cc2)cc1C(=O)N[C@H]1CC[C@H](O)CC1 :: 59
2) Nc1ncc(-c2ccc([C@@]34C[C@@H]3CN(C3CCOCC3)C4)cc2)cc1C(=O)N[C@H]1CC[C@H](O)CC1 :: 21
3) COCCN1C[C@H]2C[C@@]2(c2ccc(-c3cnc(N)c(C(=O)N[C@H]4CC[C@H](O)CC4)c3)cc2)C1 :: 330
4) Cc1cc(CN2CCC[C@H]2C)ccc1-c1cnc(N)c(C(=O)N[C@H]2CC[C@](C)(O)CC2)c1 :: 3550

* * *

Target: wild-type ALK2 (aa172-499) (Homo sapiens (Human), UniProt Q04771)
Sequence (Q04771 172-499): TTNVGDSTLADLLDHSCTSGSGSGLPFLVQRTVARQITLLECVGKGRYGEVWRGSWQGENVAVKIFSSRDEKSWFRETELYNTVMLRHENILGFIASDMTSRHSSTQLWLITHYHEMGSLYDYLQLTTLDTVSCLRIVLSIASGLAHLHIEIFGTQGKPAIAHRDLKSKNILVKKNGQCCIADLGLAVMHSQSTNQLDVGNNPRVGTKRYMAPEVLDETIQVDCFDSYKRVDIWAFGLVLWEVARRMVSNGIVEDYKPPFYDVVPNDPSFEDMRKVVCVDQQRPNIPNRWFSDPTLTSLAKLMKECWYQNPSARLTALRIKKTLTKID
Assay: Caliper biochemical peptide phosphorylation assay, ALK2
Conditions: 15 μm ATP, 60 min at 30° C.; read-out: ALK2 EPK (IC50)
pIC50: −log10 of the molar value.
As shown below, each of these compounds has a reported pIC50 value.
READOUT KIND: pIC50

1. Nc1ncc(-c2ccc(OCCCN3CCOCC3)cc2)cc1C(=O)NC1CCCCC1 :: 7.51
2. COCCN1C[C@@H]2C[C@]2(c2ccc(-c3cnc(N)c(C(=O)NC45CCC(O)(CC4)CC5)c3)cc2)C1 :: 7.92
3. CC(C)N1C[C@@H]2C[C@]2(c2ccc(-c3cnc(N)c(C(=O)N[C@H]4CC[C@H](O)CC4)c3)cc2)C1 :: 7.96
4. CC(F)(F)CN1C[C@H]2C[C@@]2(c2ccc(-c3cnc(N)c(C(=O)N[C@H]4CC[C@H](O)CC4)c3)cc2)C1 :: 7.43
5. Nc1ncc(-c2ccc([C@@]34C[C@@H]3CN(CCOCC(F)(F)F)C4)cc2)cc1C(=O)N[C@H]1CC[C@H](O)CC1 :: 7.64
6. Nc1ncc(-c2ccc([C@]34C[C@H]3CN(C3COC3)C4)cc2)cc1C(=O)N[C@H]1CC[C@H](O)CC1 :: 7.74
7. Nc1ncc(-c2cccc(C(=O)N3CCOCC3)c2)cc1C(=O)NC1CCCCC1 :: 6.46
8. Nc1ncc(-c2ccc(N3CCCCC3)cc2)cc1C(=O)NC1CCCCC1 :: 7.46
9. C[C@]1(O)CC[C@H](NC(=O)c2cc(-c3ccc([C@]45C[C@H]4CN(C4CCC(F)(F)CC4)C5)cc3)cnc2N)CC1 :: 7.49
10. Nc1ncc(-c2ccc([C@]34C[C@H]3CN(CC(F)(F)F)C4)cc2)cc1C(=O)N[C@H]1CC[C@H](O)CC1 :: 7.30
11. Nc1ncc(-c2ccc([C@@]34C[C@@H]3CN(C3CCN(CC(F)(F)F)CC3)C4)cc2)cc1C(=O)N[C@H]1CC[C@H](O)CC1 :: 7.62
12. [2H][C@]1(O)CC[C@H](NC(=O)c2cc(-c3ccc([C@]45C[C@H]4CN(C(C)C)C5)cc3)cnc2N)CC1 :: 6.96
13. CC#CCN1C[C@H]2C[C@@]2(c2ccc(-c3cnc(N)c(C(=O)N[C@H]4CC[C@H](O)CC4)c3)cc2)C1 :: 7.38
14. C[C@@H]1CCCN1Cc1ccc(-c2cnc(N)c(C(=O)N[C@H]3CC[C@](C)(O)CC3)c2)c(Cl)c1 :: 6.96

* * *

Experiment: Solubility (at 25° C., 24 h equilibration)
Format: physicochemical
Conditions: SGF, 25 °C, pH 2, simulated gastric fluid, thermodynamic from solid, pH 2.0 SGF/2.0, 24 h, target concentration 2 mg/mL
READOUT KIND: solubility at 24 h

1) Nc1ncc(-c2ccc([C@@]34C[C@@H]3CN(C3CCOCC3)C4)cc2)cc1C(=O)NC12CCC(O)(CC1)CC2 [Free form Modification HA] :: > 2000 µg/mL

* * *

Tested on: BMP response element (BRE) luciferase reporter in HuH7 cells, BMP6 stimulated
Assay: BMP signaling reporter gene assay
Assay type: cell-based
Settings: Homo sapiens, Huh-7; HuH7 BRE-luciferase, BMP6 100 ng/ml, 5 hours; read-out: MSD BMP RGA IC50
READOUT KIND: IC50

1. Nc1ncc(-c2ccc([C@]34C[C@H]3CN(C3COC3)C4)cc2)cc1C(=O)NC12CCC(O)(CC1)CC2 :: 390 nM
2. Nc1ncc(-c2ccc([C@]34C[C@H]3CN(C3CCC(F)(F)CC3)C4)cc2)cc1C(=O)NC12CCC(O)(CC1)CC2 :: 73 nM
3. C[C@@H]1CCCN1Cc1ccc(-c2cnc(N)c(C(=O)N[C@H]3CC[C@](C)(O)CC3)c2)c(Cl)c1 :: 1250 nM
4. CC#CCN1C[C@H]2C[C@@]2(c2ccc(-c3cnc(N)c(C(=O)N[C@H]4CC[C@H](O)CC4)c3)cc2)C1 :: 84 nM
5. Nc1ncc(-c2ccc(OCCCN3CCOCC3)cc2)cc1C(=O)NC1CCCCC1 :: 340 nM
6. CC(C)N1C[C@H]2C[C@@]2(c2ccc(-c3cnc(N)c(C(=O)N[C@H]4CC[C@](C)(O)CC4)c3)cc2)C1 :: 81 nM
7. CN1CCN(C(=O)c2ccc(-c3cnc(N)c(C(=O)NC4CCCCC4)c3)cc2)CC1 :: 365 nM
